# target-of-assay: T1, human OX40 (form used in the assay not stated) (human, UniProt P43489 29-214, limits assumed)
# T1 sequence (looked up): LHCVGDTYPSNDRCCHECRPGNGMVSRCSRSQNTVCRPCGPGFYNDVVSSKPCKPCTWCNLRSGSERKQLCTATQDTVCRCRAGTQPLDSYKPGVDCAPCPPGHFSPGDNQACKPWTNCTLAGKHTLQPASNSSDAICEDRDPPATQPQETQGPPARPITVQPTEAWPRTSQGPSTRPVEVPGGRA
# experimental-protocol: Biacore, format not described
measured-endpoint: Kd

Task: Dear colleague, I am looking for the recorded Kd of the following binder: humanized A10 whole antibody F (A10 LC (TH) hu 336 / A10 humanized) (antibody, V domains shown, also called A10-F; humanized variant A10-F) VH: QVQLVQSGAEVKKPGASVKVSCKASGYTFTSYWMHWVRQAPGQGLEWMGEIHPKSGNSNYNEKFKGRVTMTRDTSTSTVYMELSSLRSEDTAVYYCARGPEYSNFWFAYWGQGTLVTVSS VL: DIVLTQSPTSLAVSLGQRATISCKASQTVDYDGDSYMHWYQQKPGQPPKLLIYAASNLESGVPDRFSGSGSGTDFTLTISSLQAEDVAVYYCHQSNEDPWTFGQGTKVEIK
Result: 1.12 nM

Task: What would you report for humanized A10 whole antibody C (A10 LC (TH) hu 336 / A10 L70) (antibody, V domains shown) VH: QVQLVQSGAEVKKPGASVKVSCKASGYTFTSYWMHWVRQAPGQGLEWMGEIHPKSGNSNYNEKFKGRVTLTRDTSTSTVYMELSSLRSEDTAVYYCARGPEYSNFWFAYWGQGTLVTVSS VL: DIVMTQSPDSLAVSLGERATINCKASQTVDYDGDSYMHWYQQKPGQPPKLLIYAASNLESGVPDRFSGSGSGTDFTLTISSLQAEDVAVYYCHQSNEDPWTFGQGTKVEIK ?
Result: 1.44 nM

Task: What would you report for humanized A10 whole antibody E (A10 LC (SN) / A10 humanized) (antibody, V domains shown) VH: QVQLVQSGAEVKKPGASVKVSCKASGYTFTSYWMHWVRQAPGQGLEWMGEIHPKSGNSNYNEKFKGRVTMTRDTSTSTVYMELSSLRSEDTAVYYCARGPEYSNFWFAYWGQGTLVTVSS VL: DIVMTQSPDSLAVSLGERATINCKASQSVDYDGDSYMNWYQQKPGQPPKLLIYAASNLESGVPDRFSGSGSGTDFTLTISSLQAEDVAVYYCHQSNEDPWTFGQGTKVEIK ?
Result: 1.25 nM
